test: Plasma clearance in Beagle dog at 0.05 mg/kg; format: ADME, organism-based, Canis lupus familiaris
Rule: clearance below 6 mL/min/kg gives true (1). Equal to or above 6 mL/min/kg gives false (0).

| compound | label.value |
| --- | --- |
| CCn1c(-c2cnc(C)nc2)nc2c(O[C@H]3CCN(C(=O)C4CCC4)C3)ncnc21 | false (0) |
| CCn1c(-c2cnc(C)nc2)nc2c(O[C@H]3CCN(C(=O)C4CCOC4)C3)ncnc21 (stereo partly drawn) | true (1) |
| CCn1c(-c2ccc(C(F)(F)F)nc2)nc2c(N[C@H]3CCN(C(=O)C4CC4)C3)ncnc21 | true (1) |
| CCn1c(-c2cnc(C)nc2)nc2c(O[C@H]3CCN(C(=O)N4CC(OC)C4)C3)ncnc21 | false (0) |
| CCC(=O)N1CC[C@H](Nc2ncnc3c2nc(-c2cnc(C)nc2)n3CC)C1 | true (1) |
| CCn1c(-c2cnc(C)nc2)nc2c(O[C@H]3CCN(C(=O)C4CC(F)(F)C4)C3)ncnc21 | false (0) |
| CCn1c(-c2cnc(C)nc2)nc2c(O[C@H]3CCN(C(=O)C4CCOCC4)C3)ncnc21 | true (1) |
